Test: Tmax in Sprague-Dawley rat at 25 mg/kg, po or 5 mg/kg, iv administered as single dose by LC-MS/MS analysis
Format: ADME, organism-based
Conditions: in vivo
Consider the following molecules; for each one, report its Tmax.
Numbers only, in min.

In the examples that follow, each entry is paired with its recorded Tmax.
1) N#Cc1ccc(F)cc1Cn1c(N2CCC[C@@H](N)C2)nc2c(-c3ccsc3)c[nH]c2c1=O 140
2) N#Cc1ccc(F)cc1Cn1c(N2CCC[C@@H](N)C2)nc2cc[nH]c2c1=O 8.4

# input for lookup
Ask: I would be grateful if you could share the reported Tmax for Cn1c(=O)cc(N2CCC[C@@H](N)C2)n(Cc2cc(F)ccc2C#N)c1=O .
Result: 42

---

Assay: Half life in Sprague-Dawley rat at 25 mg/kg, po administered as single dose by LC-MS/MS analysis
Assay type: ADME, organism-based
Details: in vivo
Consider the following compounds; for each one, report its half-life.
Numbers only, in h.

compound	half-life (h)
N#Cc1ccc(F)cc1Cn1c(N2CCC[C@@H](N)C2)nc2c(-c3ccsc3)c[nH]c2c1=O	7.89
Cn1c(=O)cc(N2CCC[C@@H](N)C2)n(Cc2cc(F)ccc2C#N)c1=O [TRELAGLIPTIN]	5.13

# input for lookup
Ask: I would be grateful if you could share the reported half-life for N#Cc1ccc(F)cc1Cn1c(N2CCC[C@@H](N)C2)nc2cc[nH]c2c1=O .
Result: 5.46

---

Experiment: Half life in rat liver microsomes at […] by LC-MS/MS analysis
Assay type: ADME, microsome
measuredMetric: half-life

In the examples that follow, each entry is paired with its recorded half-life.
1) CC(C)S(=O)(=O)c1ccc(-c2c[nH]c3c(=O)n(Cc4cc(F)ccc4C#N)c(N4CCC[C@@H](N)C4)nc23)cc1 > 3.33 h
2) Cn1c(=O)cc(N2CCC[C@@H](N)C2)n(Cc2cc(F)ccc2C#N)c1=O > 3.33 h

# input for lookup
Ask: I would be grateful if you could share the reported half-life for N#Cc1ccc(F)cc1Cn1c(N2CCC[C@@H](N)C2)nc2cc[nH]c2c1=O .
Result: > 1 h
